Kindly state Fold increase in potency compared to AB-H8 for each of the entries shown.
molecular target: human Siglec-7 on primary human monocyte-derived dendritic cells (human, UniProt Q9Y286 19-467); experiment: cell-based or functional assay
Sequence (Q9Y286 19-467): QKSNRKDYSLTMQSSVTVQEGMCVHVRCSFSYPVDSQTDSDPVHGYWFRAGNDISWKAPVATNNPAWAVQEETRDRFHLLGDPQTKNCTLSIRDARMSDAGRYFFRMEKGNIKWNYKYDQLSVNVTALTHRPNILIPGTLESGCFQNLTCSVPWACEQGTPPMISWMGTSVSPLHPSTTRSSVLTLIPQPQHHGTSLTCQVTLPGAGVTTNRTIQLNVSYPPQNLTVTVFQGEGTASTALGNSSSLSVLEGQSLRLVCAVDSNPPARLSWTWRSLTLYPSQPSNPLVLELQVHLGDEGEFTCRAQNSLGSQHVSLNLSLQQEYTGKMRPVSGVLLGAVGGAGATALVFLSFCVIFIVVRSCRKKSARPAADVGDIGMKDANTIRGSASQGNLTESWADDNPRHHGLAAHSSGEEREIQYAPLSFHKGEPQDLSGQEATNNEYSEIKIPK
Your answer is read as fold, so omit the unit and give the number.

Report Fold increase in potency compared to AB-H8 for S7AB-H8.4 (antibody, V domains shown) VH: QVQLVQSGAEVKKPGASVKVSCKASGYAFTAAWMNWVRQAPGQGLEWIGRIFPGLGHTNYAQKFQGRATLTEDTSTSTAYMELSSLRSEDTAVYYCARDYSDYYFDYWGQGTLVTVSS VL: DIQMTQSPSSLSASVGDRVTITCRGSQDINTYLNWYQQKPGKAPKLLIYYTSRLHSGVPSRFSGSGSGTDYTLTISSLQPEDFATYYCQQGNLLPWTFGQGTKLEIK please.
4.3

Report Fold increase in potency compared to AB-H8 for S7AB-H8.35.2 (antibody, V domains shown) VH: QVQLVQSGAEVKKPGASVKVSCKASGYAFTEAWMNWVRQARGQRLEWIGRIFPGYGHTNYAQKFQGRATLTEDTSTSTAYMELSSLRSEDTAVYYCARDYSDYYFDYWGQGTLVTVSS VL: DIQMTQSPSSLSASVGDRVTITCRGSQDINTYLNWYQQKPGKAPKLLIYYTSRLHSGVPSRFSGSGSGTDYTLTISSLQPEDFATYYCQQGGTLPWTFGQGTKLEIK please.
1.8

Report Fold increase in potency compared to AB-H8 for S7AB-H8.44 (antibody, V domains shown) VH: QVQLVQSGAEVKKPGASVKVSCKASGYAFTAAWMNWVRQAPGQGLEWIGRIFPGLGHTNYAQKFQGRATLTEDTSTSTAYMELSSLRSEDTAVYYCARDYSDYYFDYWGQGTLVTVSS VL: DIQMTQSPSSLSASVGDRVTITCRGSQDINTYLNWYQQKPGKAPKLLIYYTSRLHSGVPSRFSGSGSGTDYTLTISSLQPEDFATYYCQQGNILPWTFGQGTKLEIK please.
5.6

Ref: patent US20210246204A1
